The origin of these recorded values is patent US20210238260.

target: Factor X (FX), P00742
Sequence (P00742 whole entry, looked up): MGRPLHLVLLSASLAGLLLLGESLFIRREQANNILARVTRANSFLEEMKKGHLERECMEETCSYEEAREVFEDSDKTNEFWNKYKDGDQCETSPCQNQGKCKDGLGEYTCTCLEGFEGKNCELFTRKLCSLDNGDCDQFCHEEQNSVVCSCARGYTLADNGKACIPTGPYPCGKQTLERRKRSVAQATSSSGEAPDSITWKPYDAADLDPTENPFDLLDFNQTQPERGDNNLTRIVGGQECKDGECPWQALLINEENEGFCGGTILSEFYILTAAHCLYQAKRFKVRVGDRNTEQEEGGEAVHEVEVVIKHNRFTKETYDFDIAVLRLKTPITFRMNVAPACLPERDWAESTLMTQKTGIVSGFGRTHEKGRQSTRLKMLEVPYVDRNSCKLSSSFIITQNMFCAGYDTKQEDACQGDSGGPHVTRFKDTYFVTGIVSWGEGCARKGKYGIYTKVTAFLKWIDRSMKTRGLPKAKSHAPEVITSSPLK
value_kind: % of WT kcat/KM
Returns: string containing the number followed by the unit.

The value of % of WT kcat/KM measured for the protein FIXa-Y155F/K247N/N249S/R318Y/R338E/T343R/E410N (protein) chain 1: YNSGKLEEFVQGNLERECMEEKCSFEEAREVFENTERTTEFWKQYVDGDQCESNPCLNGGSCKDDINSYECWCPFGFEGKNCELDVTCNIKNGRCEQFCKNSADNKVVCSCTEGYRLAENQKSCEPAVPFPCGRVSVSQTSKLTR chain 2: VVGGEDAKPGQFPWQVVLNGKVDAFCGGSIVNEKWIVTAAHCVETGVKITVVAGEHNIEETEHTEQNRSVIRIIPHHNYNAAINKYNHDIALLELDEPLVLNSYVTPICIADKEYTNIFLKFGSGYVSGWGRVFHKGYSALVLQYLRVPLVDRATCLESTKFRIYNNMFCAGFHEGGRDSCQGDSGGPHVTEVEGTSFLTGIISWGEECAMKGKYGIYTKVSRYVNWIKNKTKLT turned out to be 1091%
